Value source: patent US20090042969A1

system.tested: pancreatic elastase (Sus scrofa)
Sequence (P00772 27-266): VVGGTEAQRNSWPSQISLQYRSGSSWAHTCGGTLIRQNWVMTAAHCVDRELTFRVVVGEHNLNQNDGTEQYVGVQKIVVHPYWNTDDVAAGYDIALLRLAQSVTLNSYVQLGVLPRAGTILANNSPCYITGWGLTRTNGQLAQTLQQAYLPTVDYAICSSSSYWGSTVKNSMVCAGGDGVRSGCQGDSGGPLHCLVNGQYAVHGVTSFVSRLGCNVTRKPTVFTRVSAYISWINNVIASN
assay.endpoint: Ki

- COc1ccc(C(=O)N[C@H](C(=O)N2CCC[C@H]2C(=O)N[C@H](C(=O)C(F)(F)F)C(C)C)C(C)C)cc1 [compound II]: 200 nM

====

system.tested: pancreatic elastase (Sus scrofa)
pIC50: −log10 of the molar value.
assay.endpoint: pIC50

- COc1ccc(C(=O)N[C@H](C(=O)N2CCC[C@H]2C(=O)N[C@H](C(=O)C(F)(F)F)C(C)C)C(C)C)cc1: 6.00

====

method.summary: Pharmacokinetics (half-life, AUC, bioavailability)
Design: species or system rats, hamsters and dogs
condition.details: rat, hamster, dog, in vivo; oral versus intravenous AUC; read-out: percentage bioavailability
assay.endpoint: bioavailability

- COc1ccc(C(=O)N[C@H](C(=O)N2CCC[C@H]2C(=O)N[C@H](C(=O)C(F)(F)F)C(C)C)C(C)C)cc1 [compound II]: 26 to 82%
